Measured MBC values are reported for all entries that follow.
- Test system: Escherichia coli
- assay_procedure: Antibacterial activity against Escherichia coli ATCC 25922
- Assay type: functional

The examples below pair each entry with its known result.
molecule: CC(C)Cc1ccc(C(C)CN2C(=N)N([C@H](Cc3ccc4ccccc4c3)CN3CCCC3CN3C(N)=NC[C@@H]3C)C[C@H]2CC2CCCCC2)cc1 (stereo partly drawn)
system_name: Escherichia coli
MBC: > 10 µg/mL

molecule: CCCC[C@@H]1CN([C@@H](CC2CCCCC2)CN2CCCC2CN2C(N)=NC[C@@H]2Cc2ccccc2)C(=N)N1CCc1cc(C(F)(F)F)cc(C(F)(F)F)c1 (stereo partly drawn)
system_name: Escherichia coli
MBC: > 10 µg/mL

Okay, next one:
Fill in MBC for CC(C)Cc1ccc(C(C)CN2C(=N)N([C@H](CC3CCCCC3)CN3CCCC3CN3C(N)=NC[C@@H]3C)C[C@H]2CC2CCCCC2)cc1 (stereo partly drawn) tested with Escherichia coli.
5 µg/mL
